Tested on: Hek293T
Run description: Primary qHTS to identify gynecologic anti-cancer compounds using libraries of approved drugs and bioactive compounds (AID 1345084); note: nearly all actives have a fitted effect of over 55% in size
Condition notes: Gynecologic cancer cell panel viability, ATPlite luminescence, 48 h, control line for the selectivity index; series mostly up to 57.5 µM
Inconclusive results are not listed. Activity calls are given as the source filed them. Calls come from the whole dose curve; as a rule, active = well fitted cell-killing curve with a large enough effect; inconclusive = small, poorly fitted or top-dose-only effect, or effect the other way; inactive = flat fitted curve, though single readings scatter.
Parameter call: string, one of true (1) for active, false (0) for inactive

// below: answered compounds
CCOCCOC(=O)/C=C/c1ccc(OC)cc1 = false (0)
Cc1c(CN2CCN(C(=O)C(C)O)CC2)sc2c(N3CCOCC3)nc(-c3cnc(N)nc3)nc12 (stereo not given) = true (1)
O=C(O)c1ccccc1NC(=O)N1CCC(c2ccccc2C(F)(F)F)CC1 = false (0)
C=CC1C(OC2OC(CO)C(O)C(O)C2O)OC=C(C(=O)OC)C1CC1CC(=O)CC(CCc2ccc(O)cc2)O1 (stereo not given) = false (0)

Exercise: Please state the recorded outcome for this compound: C=C1OC2CC(C(=O)O)C=CC2NC1=O (stereo not given)
Solution: false (0)
